# System: Rattus norvegicus
# TEST DETAILS: Antiinflammatory activity against carrageenan-induced paw oedema in Wistar Albino rat assessed as mean swelling paw volume at 50 mg/kg, ip after 3 hrs
# Type: functional
# CONDITION NOTES: route intraperitoneal
MEASURED ENDPOINT: Activity (mL)

chem_smiles=N#Cc1c(-c2ccc(Br)cc2)c2c([nH]c1=S)-c1ccccc1SCC2 measured_endpoint=Activity u=mL number=0.495
chem_smiles=COc1nc2c(c(-c3cccs3)c1C#N)CCSc1ccccc1-2 measured_endpoint=Activity u=mL number=0.6
chem_smiles=COc1nc2c(c(-c3ccco3)c1C#N)CCSc1ccccc1-2 measured_endpoint=Activity u=mL number=0.572
chem_smiles=COc1ccc(-c2c(C#N)c(OC)nc3c2CCSc2ccccc2-3)cc1 measured_endpoint=Activity u=mL number=0.178
chem_smiles=COc1ccc(-c2c3c([nH]c(=S)c2C#N)-c2ccccc2SCC3)cc1 measured_endpoint=Activity u=mL number=0.5
chem_smiles=C1CCNCC1.COc1ccc(-c2c(C#N)c(S)[nH]c(=S)c2C#N)cc1.O measured_endpoint=Activity u=mL number=0.588
chem_smiles=CCOc1nc2c(c(-c3ccc(Cl)cc3)c1C#N)CCSc1ccccc1-2 measured_endpoint=Activity u=mL number=0.158
chem_smiles=COc1nc2c(c(-c3ccc(Cl)cc3)c1C#N)CCSc1ccccc1-2 measured_endpoint=Activity u=mL number=0.277
chem_smiles=C1COCCN1.COc1ccc(-c2c(C#N)c(S)[nH]c(=S)c2C#N)cc1.O measured_endpoint=Activity u=mL number=0.44
chem_smiles=COc1nc2c(c(-c3ccccc3)c1C#N)CCSc1ccccc1-2 measured_endpoint=Activity u=mL number=0.558
chem_smiles=CCOc1nc2c(c(-c3ccc(OC)cc3)c1C#N)CCSc1ccccc1-2 measured_endpoint=Activity u=mL number=0.128
